- Tested Target: T1, Rb^P R621H (human, UniProt P06400 380-788, R621H)
- T1 construct: also called variant 42
- T1 sequence (looked up): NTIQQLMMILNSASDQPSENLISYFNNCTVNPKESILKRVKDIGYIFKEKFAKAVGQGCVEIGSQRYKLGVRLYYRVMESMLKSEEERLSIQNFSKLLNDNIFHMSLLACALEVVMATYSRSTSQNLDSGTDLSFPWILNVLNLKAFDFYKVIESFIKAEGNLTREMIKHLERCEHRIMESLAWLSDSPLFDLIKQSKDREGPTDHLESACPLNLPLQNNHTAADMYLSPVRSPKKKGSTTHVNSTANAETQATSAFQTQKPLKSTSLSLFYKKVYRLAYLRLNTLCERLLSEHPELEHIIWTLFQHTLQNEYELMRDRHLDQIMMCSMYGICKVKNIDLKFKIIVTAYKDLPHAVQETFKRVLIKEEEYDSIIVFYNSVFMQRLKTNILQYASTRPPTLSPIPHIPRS
- Run Description: fluorescence polarisation; 25 °C; unlabeled Rb^P titrated against 1.5 nM TMR-E2F1^TD or 7.5 nM TMR-E7^LxCxE; 25 mM Tris pH 8.0, 200 mM NaCl, 1 mM DTT, 0.1% Tween-20; 2 min incubation; quadratic fit; apparent Kd for the variants, Kd for WT
- Measurement Context: both partners purified
No end group written: not given here. TMR = tetramethyl rhodamine dye
Test Readout: Kd (nM)
Numbers only, in nM.

binder="{TMR}-GEGIRDLFDCDFGDLTPLD (also called E2F^TD; source: synthetic peptide, bought: GenScript) [TMR-E2F1^TD, peptide of the E2F1 transactivation domain]" units=nM measured_result=30

Query binder follows.
Ask: Which Kd is reported for this binder? DLYCYEQLN (also: TMR label, position not given here, source: synthetic peptide, bought: GenScript) [TMR-E7^LxCxE, LxCxE peptide of the E7 oncoprotein from HPV]
Result: 10
